molecular target: UspC (Mtb-UspC, Rv2318), solute-binding protein of the UspABC transporter (Mycobacterium tuberculosis); construct: UspCNt, N-terminally truncated, residues 31–441, His6-tagged; test: thermal shift saturation binding (Kd,app), Tm shift […]°C at […]
Sequence (P71894 entry or part of it): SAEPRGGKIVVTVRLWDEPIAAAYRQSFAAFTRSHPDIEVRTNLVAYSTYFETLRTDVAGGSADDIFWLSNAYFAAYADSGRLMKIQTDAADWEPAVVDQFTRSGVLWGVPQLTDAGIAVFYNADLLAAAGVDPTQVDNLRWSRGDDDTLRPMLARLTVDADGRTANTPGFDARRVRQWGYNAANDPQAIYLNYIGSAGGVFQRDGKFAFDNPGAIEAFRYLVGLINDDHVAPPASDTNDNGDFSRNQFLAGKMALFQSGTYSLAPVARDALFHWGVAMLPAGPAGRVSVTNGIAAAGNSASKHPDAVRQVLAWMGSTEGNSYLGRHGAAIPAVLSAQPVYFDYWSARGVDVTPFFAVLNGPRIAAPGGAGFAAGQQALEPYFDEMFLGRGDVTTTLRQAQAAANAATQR
assay.endpoint: pKd
One number for each entry, as −log10 of the molar value.

The molecule identified as N[C@H]1C(O)O[C@H](COP(=O)(O)O)[C@@H](O)[C@@H]1O (stereo partly drawn) [D-glucosamine-6-phosphate] registered its pKd at 1.56
